tested on: 857933-349-R-J2-PDC complex spheroids, viability; test: Anticancer human tumor 857933-349-R-J2-PDC patient-derived colon adenocarcinoma cell line growth inhibition [GQUAD]; details: second compound 3.16 µM; first compound 0.00999 µM; stronger effect = lower value;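 further: spheroids exposed to compounds for one week before readout; percent viability relative to vehicle DMSO wells taken as 100%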
Exercise: for every item that follows, state its recorded viability, T/C.
Respond with the bare value in %.

# viability, T/C (compound: CCc1c2c(nc3ccc(O)cc13)-c1cc3c(c(=O)n1C2)COC(=O)[C@]3(O)CC + CN(C)c1ccc(Nc2c3ccc(NC(=O)CCN4CCCC4)cc3nc3cc(NC(=O)CCN4CCCC4)ccc23)cc1 ) is 58.3

Measured viability, T/C of CC[C@@]1(O)C(=O)OCc2c1cc1n(c2=O)Cc2cc3c(CN(C)C)c(O)ccc3nc2-1 + Cc1cnc(CNC(=O)c2c(=O)c3ccc(N4CCCN(C)CC4)nc3n3c2sc2ccccc23)cn1 : 2.38

So for Cc1[nH]c2ccccc2c1CCNCc1ccc(/C=C/C(=O)NO)cc1 + Cc1cnc(CNC(=O)c2c(=O)c3ccc(N4CCCN(C)CC4)nc3n3c2sc2ccccc23)cn1 , the logged viability, T/C turned out to be 2.34

# credit: PubChem BioAssay AID2060491
